Provenance of the data: patent US20240051952A1

Quick reference: Maximum Fold induction of the listed items.
# Test system: Human Heme Oxygenase-1 (HMOX-1)
# experimental_protocol: ELISA assay to measure human heme oxygenase-1 (HMOX-1) in HepG2 lysate
# Assay type: cell-based
# condition: fold change of human HMOX1 protein levels relative to DMSO control, HepG2

Answered cases to consult:
- structure_smiles_string: "CCn1c(Nc2nc3ccc(OC(F)(F)F)cc3o2)nc2cc(C(=O)NCCO)ccc21"
  system_under_test: "Human Heme Oxygenase-1 (HMOX-1)"
  Maximum Fold induction: "15-32"
- structure_smiles_string: "COCCNC(=O)c1ccc2c(c1)nc(Nc1nc3cc(OC(F)(F)F)ccc3[nH]1)n2C1CCOCC1"
  system_under_test: "Human Heme Oxygenase-1 (HMOX-1)"
  Maximum Fold induction: "19-30"
- structure_smiles_string: "COCCNC(=O)c1ccc2c(c1)nc(Nc1nc3cc(F)ccc3o1)n2C"
  system_under_test: "Human Heme Oxygenase-1 (HMOX-1)"
  Maximum Fold induction: "18-56"

Please give the measured Maximum Fold induction for this compound: COCCNC(=O)c1ccc2c(c1)nc(Nc1nc3ccc(C4CC4)cc3o1)n2C
32-38

Look at this compound and give its reported Maximum Fold induction. COCCNC(=O)c1ccc2c(c1)nc(Nc1nc3ccc(OC(F)(F)F)cc3s1)n2C1CCN(C)CC1
6-46

Entry COCCn1c(Nc2nc3cc(OC(F)(F)F)ccc3[nH]2)nc2cc(C(=O)O)ccc21 has what Maximum Fold induction?
15-25

Which value of Maximum Fold induction has been reported for COCCNC(=O)c1ccc2c(c1)nc(Nc1nc3ccc(OC(F)(F)F)cc3o1)n2CCOC in the records?
21-23

Please report the recorded Maximum Fold induction for COCCONC(=O)c1ccc2c(c1)nc(Nc1nc3ccc(OC(F)(F)F)cc3o1)n2C .
27-36

====

# Tested on: Human Heme Oxygenase-1 (HMOX-1)
# experimental_protocol: ELISA assay to measure human heme oxygenase-1 (HMOX-1) in HepG2 lysate
# Type: cell-based
# condition: fold change of human HMOX1 protein levels relative to DMSO control, HepG2
measure_name: Maximum Fold induction

Worked set:
- compound: "CN1CCC(n2c(Nc3nc4ccc(OC(F)(F)F)cc4s3)nc3cc(C(=O)O)ccc32)C1 (centres unmarked)"
  system_under_test: "Human Heme Oxygenase-1 (HMOX-1)"
  Maximum Fold induction: "29-33"
- compound: "Cn1c(Nc2nc3ccc(Cl)cc3o2)nc2cc(C(=O)O)ccc21"
  system_under_test: "Human Heme Oxygenase-1 (HMOX-1)"
  Maximum Fold induction: "39-56"

I'd like to know its Maximum Fold induction. The compound in question is Cn1c(Nc2nc3ccc(OC(F)(F)F)cc3o2)nc2cc(C(=O)O)ccc21
9-14

For the compound shown here, Cn1c(Nc2nc3ccc(OC(F)F)cc3o2)nc2cc(C(=O)NCCO)ccc21 , give the reported Maximum Fold induction.
11-18

Please report the recorded Maximum Fold induction for CC(O)CNC(=O)c1ccc2c(c1)nc(Nc1nc3ccccc3o1)n2C (centres unmarked) .
25-61

====

# System: Human Heme Oxygenase-1 (HMOX-1)
# experimental_protocol: ELISA assay to measure human heme oxygenase-1 (HMOX-1) in HepG2 lysate
# Type: cell-based
# condition: fold change of human HMOX1 protein levels relative to DMSO control, HepG2
Maximum Fold induction values by entry

- structure_smiles_string: "Cn1c(Nc2nc3ccccc3o2)nc2cc(C(=O)NCCO)ccc21"
  Maximum Fold induction: "8-27"
- structure_smiles_string: "Cn1c(Nc2nc3ccc(Br)cc3o2)nc2cc(C(=O)O)ccc21"
  Maximum Fold induction: "17-26"
- structure_smiles_string: "Cn1c(Nc2nc3ccc(OC(F)(F)F)cc3o2)nc2cc(C(=O)NCCS(C)(=O)=O)ccc21"
  Maximum Fold induction: "31-37"
- structure_smiles_string: "COCCNC(=O)c1ccc2c(c1)nc(Nc1nc3ccc(F)cc3o1)n2C"
  Maximum Fold induction: "13-36"

// next item, Maximum Fold induction requested
Any idea what Maximum Fold induction was measured for Cn1c(Nc2nc3cc(F)ccc3[nH]2)nc2cc(C(=O)O)ccc21 ?
8-12

====

# System: Human Heme Oxygenase-1 (HMOX-1)
# experimental_protocol: ELISA assay to measure human heme oxygenase-1 (HMOX-1) in HepG2 lysate
# Assay type: cell-based
# condition: fold change of human HMOX1 protein levels relative to DMSO control, HepG2
Maximum Fold induction listing for selected compounds.

Sample answers from the record:
- structure_smiles_string: "COCCNC(=O)c1ccc2c(c1)nc(Nc1nc3cc(C)ccc3o1)n2C"
  Maximum Fold induction: "15-42"
- structure_smiles_string: "COCCNC(=O)c1ccc2c(c1)nc(Nc1nc3ccc(OCCOC)cc3o1)n2C"
  Maximum Fold induction: "21-38"
- structure_smiles_string: "COCCNC(=O)c1ccc2c(c1)nc(Nc1nc3ccc(OCC(F)(F)F)cc3o1)n2C"
  Maximum Fold induction: "25-31"

Recorded Maximum Fold induction of Cn1c(Nc2nc3ccc(OC(F)(F)F)cc3o2)nc2cc(C(=O)NCCO)ccc21 , please.
29-38

Request the reported Maximum Fold induction associated with COCCNC(=O)c1ccc2c(c1)nc(Nc1nc3ccc(C(C)C)cc3o1)n2C
42-56

====

# System: Human Heme Oxygenase-1 (HMOX-1)
# experimental_protocol: ELISA assay to measure human heme oxygenase-1 (HMOX-1) in HepG2 lysate
# Type: cell-based
# condition: fold change of human HMOX1 protein levels relative to DMSO control, HepG2
measure_name: Maximum Fold induction

- compound: "Cn1c(Nc2nc3ccc(OC(F)(F)F)cc3o2)nc2cc(C(=O)NC(CO)CO)ccc21 [Example 48]"
  system_under_test: "Human Heme Oxygenase-1 (HMOX-1)"
  result: "13-20"

Maximum Fold induction of CC(C)C(N)C(=O)OCCOCCNC(=O)c1ccc2c(c1)nc(Nc1nc3ccccc3o1)n2C.Cl (racemic) [Example 30] on Human Heme Oxygenase-1 (HMOX-1)?
25-53

Query for Human Heme Oxygenase-1 (HMOX-1): what Maximum Fold induction does the record show for Cn1c(Nc2nc3ccccc3o2)nc2cc(C(=O)NCCOCCO)c(F)cc21 [Example 72] ?
31-72

====

Here the recorded Maximum Fold induction is given for each entry.
# Test system: Human Heme Oxygenase-1 (HMOX-1)
# experimental_protocol: ELISA assay to measure human heme oxygenase-1 (HMOX-1) in HepG2 lysate
# Type: cell-based
# condition: fold change of human HMOX1 protein levels relative to DMSO control, HepG2
# From the text: Example 143. ELISA Assay to Measure Human Heme Oxygenase-1 (HMOX-1) in HepG2 lysate Reagents and Technical Notes: ELISA capture antibody, standard HO-1, detection antibody and streptavidin HRP were supplied in the DuoSet IC Human total HO-1 ELISA from R&D systems (DYC3776-2). The substrate cocktail was KPL LumiGLO reserve Chemiluminescent Substrate (54-71-00). […] Measurement of HMOX1 (“HO-1”) • 1. […] Measured chemiluminescence on spectramax M5 using 150 ms integration. […]

- structure_smiles_string: "CN(C)CC(=O)NCCNC(=O)c1ccc2c(c1)nc(Nc1nc3ccccc3o1)n2C"
  Maximum Fold induction: "14-26"

Give its Maximum Fold induction value. Item: COCCNC(=O)c1ccc2c(c1)nc(Nc1nc3c(s1)CCC3)n2C
5-8

// Maximum Fold induction lookup, key: Cn1c(Nc2nc3ccc(OC(F)F)cc3o2)nc2cc(C(=O)O)ccc21
15-24

====

Items are presented alongside their recorded Maximum Fold induction.
# Test system: Human Heme Oxygenase-1 (HMOX-1)
# experimental_protocol: ELISA assay to measure human heme oxygenase-1 (HMOX-1) in HepG2 lysate
# Assay type: cell-based
# condition: fold change of human HMOX1 protein levels relative to DMSO control, HepG2

The examples below pair each entry with its known result.
- structure_smiles_string: "Cn1c(Nc2nc3cc(C(=O)O)ccc3n2C)nc2cc(OC(F)(F)F)ccc21"
  measure_name: "Maximum Fold induction"
  result: "11-13"
- structure_smiles_string: "COCCn1c(Nc2nc3ccc(OC(F)(F)F)cc3o2)nc2cc(C(=O)O)ccc21"
  measure_name: "Maximum Fold induction"
  result: "27-28"
- structure_smiles_string: "Cn1cc(NC(=O)c2ccc3c(c2)nc(Nc2nc4ccc(OC(F)(F)F)cc4o2)n3C)cn1"
  measure_name: "Maximum Fold induction"
  result: "12-18"

What measured Maximum Fold induction is associated with CN(C)CCn1c(Nc2nc3ccc(OC(F)(F)F)cc3o2)nc2cc(C(=O)O)ccc21 on Human Heme Oxygenase-1 (HMOX-1)?
17-28
